biological target: hCB2 receptor (Homo sapiens); construct: purchased PerkinElmer (Belgium); assay: [35S]-GTPγS binding assay (CB2 functional activity assay); type: biochemical; details: CB2 functional activity assay
parameterMeasured: functional character at the CB2 receptor (agonist / inverse agonist)

# molecule, target, experimentalResult
data = [
    ("CCCCCn1cc(C(=O)NC23CC4CC(CC(C4)C2)C3)c(=O)cc1C", "hCB2 receptor (Homo sapiens)", "agonists"),
    ("CCCCCn1cc(C(=O)NC23CC4CC(CC(C4)C2)C3)c(=O)cc1C(C)(C)C", "hCB2 receptor (Homo sapiens)", "agonists"),
    ("CCCCCn1cc(C(=O)N[C@@H]2CCCc3ccccc32)c(=O)cc1-c1ccccc1", "hCB2 receptor (Homo sapiens)", "inverse agonists"),
    ("CCCCCn1cc(C(=O)NC2CCCCC2)c(=O)cc1-c1ccc(Cl)cc1", "hCB2 receptor (Homo sapiens)", "inverse agonists"),
    ("CCCCCn1cc(C(=O)NC23CC4CC(C)(CC(C)(C4)C2)C3)c(=O)cc1-c1ccccc1", "hCB2 receptor (Homo sapiens)", "inverse agonists"),
    ("CCCCCn1cc(C(=O)NC(C)C23CC4CC(CC(C4)C2)C3)c(=O)cc1-c1ccccc1 (stereo not drawn)", "hCB2 receptor (Homo sapiens)", "inverse agonists"),
]

---

target: hCB2 receptor (Homo sapiens, UniProt P34972); assay: [35S]-GTPγS binding assay (CB2 functional activity assay); settings: [35S]-GTPγS binding, hCB2
Measured EC50 of individual entries

# molecule, EC50
measured = [
    ("CCCCCn1cc(C(=O)N[C@H]2CCCc3ccccc32)c(=O)cc1-c1ccccc1", "60 nM"),
    ("CCCCCn1cc(C(=O)N[C@@H]2CCCc3ccccc32)c(=O)cc1-c1ccccc1", "1.9 nM"),
    ("CCCCCn1cc(C(=O)NC(C)C23CC4CC(CC(C4)C2)C3)c(=O)cc1-c1ccccc1 (stereo not shown)", "6.5 nM"),
    ("CCCCCn1cc(C(=O)NC23CC4CC(CC(C4)C2)C3)c(=O)cc1C", "5.5 nM"),
    ("CCCCCn1cc(C(=O)NC2CCCCC2)c(=O)cc1-c1ccccc1", "1.9 nM"),
    ("CCCCCn1cc(C(=O)NC2CCCc3ccccc32)c(=O)cc1-c1ccccc1 (racemic)", "5.7 nM"),
    ("CCCCCn1cc(C(=O)NC2CCCCC2)c(=O)cc1-c1ccc(Cl)cc1", "22 nM"),
    ("CCCCCn1cc(C(=O)NC23CC4CC(C)(CC(C)(C4)C2)C3)c(=O)cc1-c1ccccc1", "5.8 nM"),
    ("CCCCCn1cc(C(=O)NC23CC4CC(CC(C4)C2)C3)c(=O)cc1C(C)(C)C", "12.2 nM"),
    ("CCCCCn1cc(C(=O)NN2CCCCC2)c(=O)cc1-c1ccccc1", "26 nM"),
]

---

biological target: hCB2 cannabinoid receptor (Homo sapiens); construct: purchased PerkinElmer (Belgium); assay: Competition binding assay, hCB2 membranes, [3H]-CP-55,940; conditions: read-out: binding affinity (Ki) at the CB2 receptor
Sequence (P34972 whole entry): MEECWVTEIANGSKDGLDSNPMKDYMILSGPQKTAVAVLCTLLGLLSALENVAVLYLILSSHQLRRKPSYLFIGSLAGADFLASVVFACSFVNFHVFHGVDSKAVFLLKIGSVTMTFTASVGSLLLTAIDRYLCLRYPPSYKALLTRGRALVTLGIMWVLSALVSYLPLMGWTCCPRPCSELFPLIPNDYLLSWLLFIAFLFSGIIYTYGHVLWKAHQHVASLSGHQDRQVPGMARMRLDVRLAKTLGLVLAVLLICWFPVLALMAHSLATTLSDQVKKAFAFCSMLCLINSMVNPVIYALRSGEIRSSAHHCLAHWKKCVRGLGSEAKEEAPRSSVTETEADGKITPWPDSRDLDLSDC
Each entry below carries its recorded Ki.
parameterMeasured: Ki

# molecule, experimentalResult
rows = [
    ("CCCCCn1cc(C(=O)NC(C)C23CC4CC(CC(C4)C2)C3)c(=O)cc1-c1ccccc1 (stereo not shown) [Compound 6]", "< 500 nM"),
    ("CCCCCn1cc(C(=O)NC23CC4CC(CC(C4)C2)C3)c(=O)c(I)c1C [Compound 52]", "< 500 nM"),
    ("CCn1cc(C(=O)NC(C)C23CC4CC(CC(C4)C2)C3)c(=O)cc1-c1ccccc1 (stereo not shown) [Compound 5]", "< 500 nM"),
    ("CC(NC(=O)c1cn(-c2ccccc2)c(-c2ccccc2)cc1=O)C12CC3CC(CC(C3)C1)C2 (stereo not shown) [Compound 7]", "> 500 nM"),
]
